molecular target: Recombinant human Cbl-b (aa 36-427) (Homo sapiens, UniProt Q13191); test: Cbl-b Biochemical Assay (TR-FRET); details: read-out: TR-FRET hCbl-b IC50
Sequence (Q13191 36-427): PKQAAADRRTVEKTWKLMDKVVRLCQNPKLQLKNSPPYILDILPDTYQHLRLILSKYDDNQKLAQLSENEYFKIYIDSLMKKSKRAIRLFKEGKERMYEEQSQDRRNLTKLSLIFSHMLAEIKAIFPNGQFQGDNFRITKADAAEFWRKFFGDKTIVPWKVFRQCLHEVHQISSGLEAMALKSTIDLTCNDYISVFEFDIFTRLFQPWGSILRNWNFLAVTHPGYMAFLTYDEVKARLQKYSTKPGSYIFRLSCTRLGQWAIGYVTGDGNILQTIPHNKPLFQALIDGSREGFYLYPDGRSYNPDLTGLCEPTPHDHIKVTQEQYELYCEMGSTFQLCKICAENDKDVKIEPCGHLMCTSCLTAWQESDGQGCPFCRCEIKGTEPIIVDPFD
pIC50: −log10 of the molar value.
RECORDED_METRIC: pIC50

These solved cases illustrate the format of a correct answer.
| MOLECULE | TESTED_SYSTEM | READING |
| --- | --- | --- |
| COCCNCc1ccc2oc(-c3cccc(-c4ccc(F)cc4-c4nncn4C)c3)nc2c1 | Recombinant human Cbl-b (aa 36-427) (Homo sapiens, UniProt Q13191) | 6.00 to 6.70 |
| Cn1cnnc1-c1cc(F)ccc1-c1cccc(-c2nc3cc(CO)ccc3[nH]2)c1 | Recombinant human Cbl-b (aa 36-427) (Homo sapiens, UniProt Q13191) | 4.30 to 5.00 |
| Cn1cnnc1-c1cc(F)ccc1-c1cc(-c2nc3cc(CO)ccc3o2)cc(C2CC2)c1 | Recombinant human Cbl-b (aa 36-427) (Homo sapiens, UniProt Q13191) | 6.00 to 6.70 |

QUERY: Sample COCCNC(COC)c1cc(C)c2oc(-c3cccc(-c4ccc(F)cc4-c4nncn4C)c3)nc2c1 (stereo not shown) — what was its pIC50?
RESULT: > 6.70

QUERY: Sample Cc1cc(CN(C)[C@@H]2CCC[C@@H]2O)cc2nc(-c3cccc(-c4ccc(F)cc4-c4nncn4C)c3)oc12 — what was its pIC50?
RESULT: > 6.70

QUERY: Sample Cn1cnnc1-c1cc(C#N)ccc1-c1cc(-c2nc3cc(CN4C[C@@H]5C[C@H]4CO5)cc(F)c3o2)nc(C2CC2)c1 — what was its pIC50?
RESULT: 6.00 to 6.70

QUERY: Sample Cn1cnnc1-c1cc(F)ccc1-c1cc(-c2nc3cc(CNCC4(O)CCC4)cc(C(F)(F)F)c3o2)cc(C2CC2)c1 — what was its pIC50?
RESULT: > 6.70

QUERY: Sample CN1CCC[C@H](NCc2cc(C(F)(F)F)c3[nH]c(-c4cccc(-c5ccc(F)cc5-c5nncn5C)c4)nc3c2)C1=O — what was its pIC50?
RESULT: > 6.70

====

// reported IC50 for each item listed
target: Recombinant human c-Cbl (aa 47-435) (Homo sapiens); test: c-Cbl Biochemical Assay (TR-FRET); conditions: hc-Cbl Biochemical Assay (TR-FRET); read-out: TR-FRET hcCbl IC50
Sequence (P22681 47-435): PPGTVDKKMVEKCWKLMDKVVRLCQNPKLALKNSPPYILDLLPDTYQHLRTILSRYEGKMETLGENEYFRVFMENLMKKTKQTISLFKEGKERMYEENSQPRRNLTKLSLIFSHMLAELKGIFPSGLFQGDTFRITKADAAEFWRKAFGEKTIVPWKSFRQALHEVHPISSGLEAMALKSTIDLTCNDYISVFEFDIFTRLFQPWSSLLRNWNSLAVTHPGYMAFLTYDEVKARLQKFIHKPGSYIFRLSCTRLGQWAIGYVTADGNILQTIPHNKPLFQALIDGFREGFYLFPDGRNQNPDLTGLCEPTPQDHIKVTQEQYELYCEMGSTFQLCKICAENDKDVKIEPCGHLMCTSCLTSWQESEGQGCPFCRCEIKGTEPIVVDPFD

| CHEMICAL_SMILES | READING |
| --- | --- |
| Cn1cnnc1-c1cc(F)ccc1-c1cc(-c2nc3cc(CNCC(C)(C)O)c(F)c(F)c3o2)nc(C2CC2)c1 | < 200 nM |
| Cn1cnnc1-c1cc(F)ccc1-c1cc(-c2nc3cc(CNCC4CC4)ccc3o2)nc(C2CC2)c1 | < 200 nM |
| CCOCCNCc1cc(C(F)(F)F)c2oc(-c3cccc(-c4ccc(F)cc4-c4nncn4C)c3)nc2c1 | < 200 nM |

QUERY: What IC50 appears in the records for this molecule with Recombinant human c-Cbl (aa 47-435) (Homo sapiens)? Cn1cnnc1CC1(c2cccc(-c3nc4cc(OCCN5CCCC5)cc(C(F)(F)F)c4[nH]3)c2)COC1
RESULT: 10000 to 50000 nM

====

system: Jurkat (clone E6-1) cells with NFAT luciferase reporter; test: Jurkat reporter assay (NFAT Luciferase); type: cell-based; conditions: Homo sapiens; Jurkat NFAT luciferase reporter cells, anti-CD3 stimulation, 6 hr; read-out: Jurkat NFAT EC50
RECORDED_METRIC: EC50

These solved cases illustrate the format of a correct answer.
| CHEMICAL_SMILES | READING |
| --- | --- |
| C[C@@H](c1cc(C(F)(F)F)c2oc(-c3cccc(C4(Cc5nncn5C)COC4)c3)nc2c1)N1CCC2(CC2)C1 | 200 to 1000 nM |
| Cn1cnnc1-c1cc(F)ccc1-c1cc(-c2nc3cc(CNCC4(O)CCC4)c(F)c(F)c3o2)nc(C2CC2)c1 | < 200 nM |

Now take the following molecule into account.
QUERY: Sample Cn1cnnc1-c1cc(F)ccc1-c1cccc(-c2nc3cc(CNCC(O)(C(F)(F)F)C(F)(F)F)cc(C(F)(F)F)c3o2)c1 — what was its EC50?
RESULT: 200 to 1000 nM

====

// reported EC50 for each item listed
test system: Jurkat (clone E6-1) cells with NFAT luciferase reporter; assay: Jurkat reporter assay (NFAT Luciferase); type: cell-based; conditions: Homo sapiens; Jurkat NFAT luciferase reporter cells, anti-CD3 stimulation, 6 hr; read-out: Jurkat NFAT EC50

| CHEMICAL_SMILES | RECORDED_METRIC | READING |
| --- | --- | --- |
| Cn1cnnc1-c1cc(F)ccc1-c1cccc(-c2nc3cc(CNCC4(O)CC(F)(F)C4)cc(C(F)(F)F)c3o2)c1 | EC50 | < 200 nM |
| Cn1cnnc1-c1cc(F)ccc1-c1cc(-c2nc3cc(CN[C@@H]4CCC[C@@H]4O)cc(C(F)(F)F)c3o2)cc(C2CC2)c1 | EC50 | < 200 nM |

Now take the following compound into account.
QUERY: Sample Cn1cnnc1-c1cc(C#N)ccc1-c1cccc(-c2nc3cc(CN[C@@H]4CCC[C@@H]4O)cc(C(F)(F)F)c3o2)c1 — what was its EC50?
RESULT: < 200 nM

====

// reported pEC50 for each item listed
system: Jurkat (clone E6-1) cells with NFAT luciferase reporter; experiment: Jurkat reporter assay (NFAT Luciferase); type: cell-based; details: Homo sapiens; Jurkat NFAT luciferase reporter cells, anti-CD3 stimulation, 6 hr; read-out: Jurkat NFAT EC50
pEC50: −log10 of the molar value.

These solved cases illustrate the format of a correct answer.
| CHEMICAL_SMILES | pEC50 |
| --- | --- |
| Cc1cc([C@H](C)NCC2CCC2)cc2nc(-c3cc(-c4ccc(F)cc4-c4nncn4C)cc(C4CC4)n3)oc12 | > 6.70 |
| COCCCNCc1cc(OC)c2oc(-c3cccc(-c4ccc(F)cc4-c4nncn4C)c3)nc2c1 | 5.00 to 6.00 |
| Cn1cnnc1-c1cc(F)ccc1-c1cccc(-c2nc3cc(CNC4CC5(CCC5)C4)cc(C(F)(F)F)c3o2)c1 | > 6.70 |
| Cn1cnnc1-c1cc(F)ccc1-c1cccc(-c2nc3cc(NCCC4CCC4)cc(C(F)(F)F)c3o2)c1 | 4.30 to 5.00 |
| Cc1c(F)c(CO)cc2nc(-c3cc(-c4ccc(F)cc4-c4nncn4C)cc(C4CC4)n3)oc12 | 5.00 to 6.00 |
| Cc1cc(CNCC2(O)CCC2)cc2nc(-c3cc(-c4ccc(F)cc4-c4nncn4C)cc(C4CC4)n3)oc12 | > 6.70 |
| Cn1cnnc1-c1cc(C#N)ccc1-c1cc(-c2nc3cc(CO)cc(F)c3o2)nc(C2CC2)c1 | 5.00 to 6.00 |
| Cn1cnnc1-c1cc(F)ccc1-c1cccc(-c2nc3cc(CN[C@@H]4CCCC[C@@H]4O)cc(C(F)(F)F)c3o2)c1 | > 6.70 |
| COc1cc(CNCCOC(C)C)cc2nc(-c3cccc(-c4ccc(F)cc4-c4nncn4C)c3)oc12 | 5.00 to 6.00 |
| COc1cccc2oc(-c3cccc(-c4ccc(F)cc4-c4nncn4C)c3)nc12 | 4.30 to 5.00 |

Now take the following molecule into account.
QUERY: Sample COc1cc(CN[C@@H]2CCC[C@@H]2O)cn2nc(-c3cccc(-c4ccc(F)cc4-c4nncn4C)c3)nc12 — what was its pEC50?
RESULT: 6.00 to 6.70

====

// reported EC50 for each item listed
test system: Jurkat (clone E6-1) cells with NFAT luciferase reporter; experiment: Jurkat reporter assay (NFAT Luciferase); type: cell-based; settings: Homo sapiens; Jurkat NFAT luciferase reporter cells, anti-CD3 stimulation, 6 hr; read-out: Jurkat NFAT EC50

These solved cases illustrate the format of a correct answer.
| MOLECULE | EC50 |
| --- | --- |
| Cn1cnnc1-c1cc(F)ccc1-c1cccc(-c2nc3cc(NCCC4CCCC4)cc(C(F)(F)F)c3o2)c1 | 1000 to 10000 nM |
| Cn1cnnc1-c1cc(F)ccc1-c1cccc(-c2nc3ccc(CN[C@@H]4CCC[C@@H]4O)cc3o2)c1 | 1000 to 10000 nM |
| COCCNCc1cc(C(F)(F)F)c2oc(-c3cccc([C@]4(c5nncn5C)C[C@@H](C)C4)c3)nc2c1 | 200 to 1000 nM |
| Cn1cnnc1-c1cc(F)ccc1-c1cc(-c2nc3cc(CN[C@@H]4CCC[C@@H]4O)cc(F)c3o2)nc(C2CC2)c1 | < 200 nM |
| Cn1cnnc1-c1cc(F)ccc1-c1cc(-c2nc3cc(CN[C@@H]4CCC[C@@H]4O)ccc3o2)nc(C2CC2)c1 | < 200 nM |
| Cn1cnnc1-c1cc(F)ccc1-c1cccc(-c2nc3cc(CN[C@@H]4CCC[C@@H]4O)cc(C(F)(F)F)c3[nH]2)c1 | 200 to 1000 nM |

QUERY: Sample Cn1cnnc1-c1cc(F)ccc1-c1cccc(-c2nc3cc(CNCC4(C#N)CCOCC4)cc(C(F)(F)F)c3[nH]2)c1 — what was its EC50?
RESULT: 200 to 1000 nM

QUERY: Sample Cn1cnnc1-c1cc(F)ccc1-c1cccc(-c2nc3cc(CNC[C@@H](O)C4CC4)cc(C(F)(F)F)c3o2)c1 (single isomer, unassigned) — what was its EC50?
RESULT: < 200 nM

QUERY: Sample CON(C)C(=O)c1cc(C(F)(F)F)c2oc(-c3cccc(-c4ccc(F)cc4-c4nncn4C)c3)nc2c1 — what was its EC50?
RESULT: 1000 to 10000 nM
